All values here come from patent US20240150465A1.

- target_system: T1, recombinant human DLL3 (human, UniProt Q9NYJ7 27-492)
- T1 sequence: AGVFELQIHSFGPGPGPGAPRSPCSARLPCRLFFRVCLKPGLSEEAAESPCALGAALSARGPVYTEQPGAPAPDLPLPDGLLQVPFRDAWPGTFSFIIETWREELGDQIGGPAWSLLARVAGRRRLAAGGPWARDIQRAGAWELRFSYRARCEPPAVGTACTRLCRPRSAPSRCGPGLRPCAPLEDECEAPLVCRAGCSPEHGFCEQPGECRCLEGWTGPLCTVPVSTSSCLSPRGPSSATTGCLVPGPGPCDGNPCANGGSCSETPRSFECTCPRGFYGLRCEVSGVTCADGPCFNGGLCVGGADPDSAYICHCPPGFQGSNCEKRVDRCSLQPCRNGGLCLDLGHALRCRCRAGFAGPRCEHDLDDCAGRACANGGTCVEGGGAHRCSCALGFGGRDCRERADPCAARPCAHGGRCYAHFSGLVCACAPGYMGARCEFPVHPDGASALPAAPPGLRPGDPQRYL
- assay_info: Octet binning on SA sensor; Antibody A (biotinylated, loaded first): D30841AE05-SG1; then 20 nM human DLL3, then 80 nM Antibody B
experimental_readout: competition ratio (Antibody B to Antibody A)
Write the number on its own, no unit after it.

Some binders with known competition ratio (Antibody B to Antibody A) results, for comparison:
DLL3-6-SG1 (antibody, human IgG1, kappa, V domains shown, Variable regions of a previously reported anti-DLL3 antibody on SG1/SK1; Used as a second antibody only) VH: QVQLQESGPGLVKPSETLSLTCTVSGASISSFYWSWIRQPPGKGLEWIGYIYYSGTTNYNPSLKSRVTISVDTSKNQFSLKLSSVTAADTAVYYCARIAVAGFFFDYWGQGTLVTVSS VL: EIVLTQSPGTLSLSPGERATLSCRASQSVNKNYLAWYQQKPGQAPRLLIYGASSRATGIPDRFSGSGSGTDFTLTISRLEPEDFAVYYCQQYDRSPLTFGGGTKVEIKR = 1.3
DLL3-14-SG1 (antibody, human IgG1, kappa, V domains shown, Variable regions of a previously reported anti-DLL3 antibody on SG1/SK1; Used as a second antibody only) VH: QVQLVQSGAEVKKPGASVKVSCKASGYTFTNYYMHWVRQAPGLGLEWMGIINPSDGSTSYAQKFQGRVTMTRDTSTNTVYMDLSSLRSEDTAVYYCARGGNSAFYSYYDMDVWGQGTTVTVSS VL: DVVMTQTPLSLPVTLGQPASISCRSSQSLVYRDGNTYLSWFQQRPGQSPRRLIYKVSNWQSGVPDRFSGGGSGTDFTLKISRVEAEDVGVYYCMQGTHWPPTFGQGTKVEIKR = 1.4

Consider now this further binder.
Annotate the binder DLL3-4-SG1 (antibody, human IgG1, kappa, V domains shown, Variable regions of a previously reported anti-DLL3 antibody on SG1/SK1; Used as a second antibody only) VH: QVQLQESGPGLVKPSETLSLTCTVSGGSISSYYWSWIRQPPGKGLEWIGYVYYSGTTNYNPSLKSRVTISVDTSKNQFSLKLSSVTAADTAVYYCASIAVTGFYFDYWGQGTLVTVSS VL: EIVLTQSPGTLSLSPGERVTLSCRASQRVNNNYLAWYQQRPGQAPRLLIYGASSRATGIPDRFSGSGSGTDFTLTISRLEPEDFAVYYCQQYDRSPLTFGGGTKLEIKR with its measured competition ratio (Antibody B to Antibody A).
1.3
